- Tested on: EBC-1 (Squamous Cell Lung Carcinoma)
- ASSAY_PROCEDURE: combination Emax (second highest fraction inhibited in the dose matrix, 72 h); higher = more inhibition; extreme values may be limits of the assay
Outcome: T for combination Emax of at least 0.3; F for anything lower.

| COMPOUND | CATEGORY |
| --- | --- |
| Cc1c2c(nn1C)CSCc1cc(n(C)n1)CSc1cc(c3ccccc3c1)OCCCc1c(C(=O)O)n(C)c3c-2c(Cl)ccc13 [AZD5991] + Cn1cnc2c(F)c(Nc3ccc(Br)cc3Cl)c(C(=O)NOCCO)cc21 [Selumetinib] (first compound max 1 µM, 7x7, partner max 3 µM) | T |
| Cc1cc2ncnn2cc1Nc1ncc2c(n1)n(C1CCOCC1)c(=O)n2C [AZD7648] + CN(C)CCCOc1ccc(-c2ccc3ncc4c(c3c2)n(C2CCOCC2)c(=O)n4C)cn1 [AZD0156] (first compound max 10 µM, 7x7, partner max 1 µM) | F |
| CN(CCO)CC[C@H](CSc1ccccc1)Nc1ccc(S(=O)(=O)NC(=O)c2ccc(N3CCC([C@@H](O)c4ccccc4-c4ccc(Cl)cc4)CC3)cc2)cc1S(=O)(=O)C(F)(F)F [AZD4320] + C[C@@H]1COCCN1C2=NC(=NC(=C2)C3(CC3)[S@](=N)(=O)C)C4=C5C=CNC5=NC=C4 [AZD6738] (first compound max 1 µM, 7x7, partner max 10 µM) | T |
| CN(CCO)CC[C@H](CSc1ccccc1)Nc1ccc(S(=O)(=O)NC(=O)c2ccc(N3CCC([C@@H](O)c4ccccc4-c4ccc(Cl)cc4)CC3)cc2)cc1S(=O)(=O)C(F)(F)F [AZD4320] + C1CN(CCC1(C(=O)N[C@@H](CCO)C2=CC=C(C=C2)Cl)N)C3=NC=NC4=C3C=CN4 [Capivasertib] (first compound max 1 µM, 7x7, partner max 3 µM) | T |
| CC(=O)c1c(C)c2cnc(Nc3ccc(N4CCNCC4)cn3)nc2n(C2CCCC2)c1=O [Palbociclib] + CC1(C)CCC(CN2CCN(c3ccc(C(=O)NS(=O)(=O)c4ccc(NCC5CCOCC5)c([N+](=O)[O-])c4)c(Oc4cnc5[nH]ccc5c4)c3)CC2)=C(c2ccc(Cl)cc2)C1 [Venetoclax] (first compound max 10 µM, 7x7, partner max 1 µM) | F |
| Cc1c2c(nn1C)CSCc1cc(n(C)n1)CSc1cc(c3ccccc3c1)OCCCc1c(C(=O)O)n(C)c3c-2c(Cl)ccc13 [AZD5991] + Cc1cc2ncnn2cc1Nc1ncc2c(n1)n(C1CCOCC1)c(=O)n2C [AZD7648] (first compound max 1 µM, 7x7, partner max 10 µM) | F |

In: Hi team, for COc1nnc2ccc(N3CCC(c4ccc(OCCN5CCN(C)C(=O)[C@H]5C)cc4)CC3)nn12 [AZD5153] + CCN(CCO)CCCOc1ccc2c(Nc3cc(CC(=O)Nc4cccc(F)c4)[nH]n3)ncnc2c1 [AZD2811] (first compound max 1 µM, 7x7, partner max 1 µM) , is the recorded combination Emax at or above 0.3?
Out: T

* * *

- System: LOU-NH91 (Squamous Cell Lung Carcinoma)
- ASSAY_PROCEDURE: combination Emax (second highest fraction inhibited in the dose matrix, 72 h); higher = more inhibition; extreme values may be limits of the assay
TEST_READOUT: combination Emax

| COMPOUND | SYSTEM_UNDER_TEST | OBS_VALUE |
| --- | --- | --- |
| CCN(CCO)CCCOc1ccc2c(Nc3cc(CC(=O)Nc4cccc(F)c4)[nH]n3)ncnc2c1 [AZD2811] + O=C(c1cc(Cc2n[nH]c(=O)c3ccccc23)ccc1F)N1CCN(C(=O)C2CC2)CC1 [Olaparib] (first compound max 1 µM, 7x7, partner max 10 µM) | LOU-NH91 (Squamous Cell Lung Carcinoma) | 0.332 |

In: Given the entry COc1cccc(OCCCN)c1-c1cc(Nc2cnc(C#N)cn2)n[nH]1 [Prexasertib] + O=C(c1cc(Cc2n[nH]c(=O)c3ccccc23)ccc1F)N1CCN(C(=O)C2CC2)CC1 [Olaparib] (first compound max 1 µM, 7x7, partner max 10 µM) , what combination Emax was observed with LOU-NH91 (Squamous Cell Lung Carcinoma)?
Out: 0.573

In: Quick one: CCN(CCO)CCCOc1ccc2c(Nc3cc(CC(=O)Nc4cccc(F)c4)[nH]n3)ncnc2c1 [AZD2811] + C[C@@H]1COCCN1C2=NC(=NC(=C2)C3(CC3)[S@](=N)(=O)C)C4=C5C=CNC5=NC=C4 [AZD6738] (first compound max 1 µM, 7x7, partner max 10 µM)
Out: 0.27

In: Same for CC(=O)c1c(C)c2cnc(Nc3ccc(N4CCNCC4)cn3)nc2n(C2CCCC2)c1=O [Palbociclib] + Cc1c2c(nn1C)CSCc1cc(n(C)n1)CSc1cc(c3ccccc3c1)OCCCc1c(C(=O)O)n(C)c3c-2c(Cl)ccc13 [AZD5991] (first compound max 10 µM, 7x7, partner max 1 µM)
Out: 0.35

* * *

- Test system: LC4-1 (B-Lymphoblastic Leukemia);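 also: after 72 h of two-drug dosing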
- ASSAY_PROCEDURE: Bliss excess, mean over the matrix (fraction); higher = more synergy
Mark NO for Bliss excess values under -0.02, and YES for everything at or above.

See these solved cases before continuing.
| MOLECULE | CATEGORY |
| --- | --- |
| CC1(C)CCC(CN2CCN(c3ccc(C(=O)NS(=O)(=O)c4ccc(NCC5CCOCC5)c([N+](=O)[O-])c4)c(Oc4cnc5[nH]ccc5c4)c3)CC2)=C(c2ccc(Cl)cc2)C1 [Venetoclax] + C[C@@H]1COCCN1C2=NC(=NC(=C2)C3(CC3)[S@](=N)(=O)C)C4=C5C=CNC5=NC=C4 [AZD6738] (first compound max 1 µM, 7x7, partner max 10 µM) | YES |
| CN(C)CCCOc1ccc(-c2ccc3ncc4c(c3c2)n(C2CCOCC2)c(=O)n4C)cn1 [AZD0156] + C[C@@H]1COCCN1C2=NC(=NC(=C2)C3(CC3)[S@](=N)(=O)C)C4=C5C=CNC5=NC=C4 [AZD6738] (first compound max 1 µM, 7x7, partner max 10 µM) | NO |
| C[C@@H](c1ccc2nccn2c1)n1nnc2ncc(-c3cnn(C)c3)nc21 [Savolitinib] + CC1(C)CCC(CN2CCN(c3ccc(C(=O)NS(=O)(=O)c4ccc(NCC5CCOCC5)c([N+](=O)[O-])c4)c(Oc4cnc5[nH]ccc5c4)c3)CC2)=C(c2ccc(Cl)cc2)C1 [Venetoclax] (first compound max 1 µM, 7x7, partner max 1 µM) | YES |

In: Decide: is the reported value of Bliss excess for CN(CCO)CC[C@H](CSc1ccccc1)Nc1ccc(S(=O)(=O)NC(=O)c2ccc(N3CCC([C@@H](O)c4ccccc4-c4ccc(Cl)cc4)CC3)cc2)cc1S(=O)(=O)C(F)(F)F [AZD4320] + C1CN(CCC1(C(=O)N[C@@H](CCO)C2=CC=C(C=C2)Cl)N)C3=NC=NC4=C3C=CN4 [Capivasertib] (first compound max 1 µM, 7x7, partner max 3 µM) equal to or greater than -0.02?
Out: YES

In: Then this molecule: N#Cc1cnc(Nc2cc(NC[C@H]3CNCCO3)c(C(F)(F)F)cn2)cn1 [SRA737] + CCc1c2c(nc3ccc(O)cc13)-c1cc3c(c(=O)n1C2)COC(=O)[C@]3(O)CC [SN-38] (first compound max 10 µM, 7x7, partner max 0.3 µM)
Out: NO

In: Same lookup for Cc1cc2ncnn2cc1Nc1ncc2c(n1)n(C1CCOCC1)c(=O)n2C [AZD7648] + C[C@@H]1COCCN1C2=NC(=NC(=C2)C3(CC3)[S@](=N)(=O)C)C4=C5C=CNC5=NC=C4 [AZD6738] (first compound max 10 µM, 7x7, partner max 10 µM) , please.
Out: YES

In: Can you handle C=CCn1c(=O)c2cnc(Nc3ccc(N4CCN(C)CC4)cc3)nc2n1-c1cccc(C(C)(C)O)n1 [AZD1775] + C1CN(CCC1(C(=O)N[C@@H](CCO)C2=CC=C(C=C2)Cl)N)C3=NC=NC4=C3C=CN4 [Capivasertib] (first compound max 3 µM, partner max 3 µM) next?
Out: NO

In: Also need C=CCn1c(=O)c2cnc(Nc3ccc(N4CCN(C)CC4)cc3)nc2n1-c1cccc(C(C)(C)O)n1 [AZD1775] + O=C(c1cc(Cc2n[nH]c(=O)c3ccccc23)ccc1F)N1CCN(C(=O)C2CC2)CC1 [Olaparib] (first compound max 1 µM, partner max 10 µM) , thanks.
Out: YES

* * *

- Test system: EW-3 (Ewing's Sarcoma)
- ASSAY_PROCEDURE: combination Emax (second highest fraction inhibited in the dose matrix, 72 h); higher = more inhibition; extreme values may be limits of the assay
TEST_READOUT: combination Emax
# print the numeric value only

| COMPOUND | TEST_READOUT | OBS_VALUE |
| --- | --- | --- |
| CCc1c2c(nc3ccc(O)cc13)-c1cc3c(c(=O)n1C2)COC(=O)[C@]3(O)CC [SN-38] + O=C(c1cc(Cc2n[nH]c(=O)c3ccccc23)ccc1F)N1CCN(C(=O)C2CC2)CC1 [Olaparib] (first compound max 0.3 µM, 7x7, partner max 10 µM) | combination Emax | 0.884 |

In: Entry CN(CCO)CC[C@H](CSc1ccccc1)Nc1ccc(S(=O)(=O)NC(=O)c2ccc(N3CCC([C@@H](O)c4ccccc4-c4ccc(Cl)cc4)CC3)cc2)cc1S(=O)(=O)C(F)(F)F [AZD4320] + CCN(CCO)CCCOc1ccc2c(Nc3cc(CC(=O)Nc4cccc(F)c4)[nH]n3)ncnc2c1 [AZD2811] (first compound max 1 µM, 7x7, partner max 1 µM) : reported combination Emax = ?
Out: 0.949

In: How about CN(CCO)CC[C@H](CSc1ccccc1)Nc1ccc(S(=O)(=O)NC(=O)c2ccc(N3CCC([C@@H](O)c4ccccc4-c4ccc(Cl)cc4)CC3)cc2)cc1S(=O)(=O)C(F)(F)F [AZD4320] + C[C@@H]1COCCN1C2=NC(=NC(=C2)C3(CC3)[S@](=N)(=O)C)C4=C5C=CNC5=NC=C4 [AZD6738] (first compound max 1 µM, 7x7, partner max 10 µM) ?
Out: 0.971
